Data provenance is the Deep4Chem optical property database.

# protocol.description: solvent given as SMILES
# experimental.setup: in ClC(Cl)Cl
parameter: absorption maximum (nm)

structure_notation=O=C1c2ccccc2-c2ccc(N3CCN(c4ccccc4)CC3)c3cccc1c23 readout_number=443
structure_notation=N#CC1=CC(C#Cc2ccccc2)=CC(C#N)=P1(c1ccccc1)c1ccccc1 readout_number=489
structure_notation=CCCCCCCCCCCCOc1cc2c3c(ccc4c5c(NC6CCCCC6)cc6c7c(ccc(c1c34)c75)C(=O)N(C1CCCCC1)C6=O)C(=O)N(C1CCCCC1)C2=O readout_number=640
structure_notation=COc1cc(OC)c2cc(-c3cccc(-c4cc5c(OC)cc(OC)cc5oc4=O)c3)c(=O)oc2c1 readout_number=352

----------
# protocol.description: solvent given as SMILES
# experimental.setup: in C1CCCCC1
absorption maximum by entry:
parameter: absorption maximum (nm)

structure_notation=Cc1cc(C)c(C2=C3C=c4c(c5ccccc5c5ccccc45)=[N+]3[B-](F)(F)n3c2cc2c4ccccc4c4ccccc4c23)c(C)c1 parameter="absorption maximum" readout_number=674
structure_notation=CCn1c2ccccc2c2ccc(C#N)cc21 parameter="absorption maximum" readout_number=366
structure_notation=CB1C=Cc2ccc3ccccc3c2N1 parameter="absorption maximum" readout_number=352
structure_notation=CN(C)c1ccc(C(=O)Nc2ccc([N+](=O)[O-])cc2)cc1 parameter="absorption maximum" readout_number=337
structure_notation=CN(C)c1ccc2nc(-c3ccc(C(=O)OC(C)(C)C)cc3)sc2c1 parameter="absorption maximum" readout_number=384
structure_notation=CN1CCN(c2ccc3c4c(cccc24)C(=O)c2ccccc2-3)CC1 parameter="absorption maximum" readout_number=428.2

----------
# protocol.description: solvent given as SMILES
# experimental.setup: in ClCCl
One threshold, 400 nm, splits the recorded absorption maximum values: lower ones are 1 (yes), equal or higher ones are 0 (no).

molecule=CCN(CC)c1ccc2c(c1)oc(=O)c1cc3c(-c4ccccc4)nn(C)c3nc12 label_class="1 (yes)"
molecule=CCCCCCCCCn1c(-c2cc(-c3nc4ccccc4n3CCCCCCCCC)cc(-c3nc4ccccc4n3CCCCCCCCC)c2)nc2ccccc21 label_class="1 (yes)"
molecule="CCC12C(=C3C(=C4c5ccc(-c6ccc(C)s6)cc5S(=O)(=O)C41CC)C(F)(F)C(F)(F)C3(F)F)c1ccc(-c3ccc(C)s3)cc1S2(=O)=O (centres undefined)" label_class="0 (no)"
molecule=CN(C)c1ccc2cc(C3=[O+][B-](F)(F)OC(c4ccc(C#N)cc4)=C3)ccc2c1 label_class="0 (no)"
molecule=CC1=C(C)c2cccc3c2c(cc2nc4ccccc4nc23)O1 label_class="0 (no)"
molecule=c1ccc(-c2cccc3ncc(-c4ccccc4)n23)cc1 label_class="1 (yes)"
molecule=CC(C)[Si](C#Cc1c2nc3ccccc3nc2c(C#C[Si](C(C)C)(C(C)C)C(C)C)c2nc3c4ccccc4c(=O)c4ccccc4c3nc12)(C(C)C)C(C)C label_class="0 (no)"

----------
absorption maximum by entry:
# protocol.description: solvent given as SMILES
# experimental.setup: in C1CCOC1
parameter: absorption maximum

molecule=C(=C(c1ccccc1)c1ccccc1)c1ccc(-c2cc(-c3ccc(C=C(c4ccccc4)c4ccccc4)cc3)c(-c3ccc(C=C(c4ccccc4)c4ccccc4)cc3)cc2-c2ccc(C=C(c3ccccc3)c3ccccc3)cc2)cc1 result="330 nm"
molecule=O=C1OC(=O)c2ccc(N(c3ccccc3)c3ccc4ccc5cccc6ccc3c4c56)c3cccc1c23 result="455 nm"
molecule=Nc1ccccc1/C=C/C(F)(F)F result="347 nm"
molecule=c1ccc(-c2nn(-c3ccccc3)c3nc4ccccc4cc23)cc1 result="398.57 nm"
molecule="CCCCC(CC)CN1C(=O)c2cccc3c(C#Cc4ccc(N(c5ccccc5)c5ccccc5)cc4)ccc(c23)C1=O (stereo not given)" result="434 nm"
molecule=CCCCCCc1ccc2c(/C=N/c3cc(/N=C/c4c(O)ccc5cc(CCCCCC)ccc45)cc(/N=C/c4c(O)ccc5cc(CCCCCC)ccc45)c3)c(O)ccc2c1 result="477 nm"
molecule=c1ccc2c(c1)c1ccccc1n2-c1ccc(-c2ccn3nc(-c4ccc(-n5c6ccccc6c6ccccc65)cc4)nc3c2)cc1 result="342 nm"
molecule=CC(C)(C)c1ccc2c(c1)c1cc(C(C)(C)C)ccc1n2-c1ccccc1-c1nc(-c2ccccc2-n2c3ccc(C(C)(C)C)cc3c3cc(C(C)(C)C)ccc32)nc(-c2ccccc2P(=O)(c2ccccc2)c2ccccc2)n1 result="343.17 nm"
molecule=CCCCCCCCn1nnc(-c2ccc(C#Cc3ccc(C#Cc4ccc(-c5nnn(CCCCCCCC)n5)cc4)c4nc5c6ccccc6c6ccccc6c5nc34)cc2)n1 result="428 nm"
molecule=c1ccc(-c2nc(-c3ccccc3)nc(-n3c4ccccc4c4cc(-n5c6ccccc6c6ccccc65)ccc43)n2)cc1 result="321.23 nm"
molecule=COc1ccc(C(=Cc2ccc(C=O)cc2)c2ccc(OC)cc2)cc1 result="356 nm"
molecule=COc1ccc(C2=C(c3ccc(OC)cc3)C(c3ccc(OC)cc3)=[N+]3C2=C(c2ccc(OC)cc2)c2c(-c4ccc(OC)cc4)c(-c4ccc(OC)cc4)c(-c4ccc(OC)cc4)n2[B-]3(F)F)cc1 result="597 nm"
molecule=CN(C)c1ccc(-c2ccc(-c3cc(N4CCCCC4)c(C#N)c4c3-c3ccccc3CC4)cc2)cc1 result="342 nm"
molecule=Clc1cnc2nn3ccccc3c2c1 result="373 nm"
molecule=CC1(C)c2ccccc2N(c2ccc(-c3nnc(-c4ccccc4O)o3)cc2)c2ccccc21 result="361 nm"

----------
# protocol.description: solvent given as SMILES
# experimental.setup: in ClC(Cl)Cl
Everything with absorption maximum lower than 400 nm is Not fulfilled; everything else, including exactly 400 nm, is Fulfilled.

molecule=COc1cc(-c2cc(-c3ccccc3)c(-c3ccccc3)c(-c3ccccc3)c2-c2ccccc2)c(OC)cc1-c1ccc(N(C)C)cc1 label_class="Not fulfilled"
molecule=F[B-]1(F)OC(c2ccccc2)=Nc2sc(-c3ccccc3)n[n+]21 label_class="Not fulfilled"
molecule=N#Cc1nc(N(Cc2ccc(Cl)cc2)Cc2ccc(Cl)cc2)c(C#N)nc1N(Cc1ccc(Cl)cc1)Cc1ccc(Cl)cc1 label_class=Fulfilled
molecule=FC(F)(F)c1ccc(-c2ncc3ccccn23)cc1 label_class="Not fulfilled"
molecule=CN(C)c1ccc2nc(-c3ccc(C(=O)Nc4ccccc4)cc3)sc2c1 label_class="Not fulfilled"
molecule=CCCCCCCCOc1ccc2c3cccc4c(OCCCCCCCC)ccc(c5cccc1c52)c43 label_class=Fulfilled
molecule=CCn1c2ccccc2c2cc3c(cc21)c1ccccc1n3CC label_class=Fulfilled
molecule="Cc1cc(C)c(C2=C3C=CC=[N+]3[B-]3(c4ccccc4)Oc4cc(O)cc5c6ccc(C)cc6c6cc2n3c6c45)c(C)c1 (centres undefined)" label_class=Fulfilled
molecule=COc1ccc(N(c2ccc(OC)cc2)c2ccc3ccc4c(B(c5c(C)cc(C)cc5C)c5c(C)cc(C)cc5C)ccc5ccc2c3c54)cc1 label_class=Fulfilled
molecule=N#Cc1nc(N(Cc2ccccc2Cl)Cc2ccccc2Cl)c(C#N)nc1N(Cc1ccccc1Cl)Cc1ccccc1Cl label_class=Fulfilled
molecule=CCCCN1C(=O)c2cc(Oc3ccc(C(C)(C)C)cc3)c3c4c(Oc5ccc(C(C)(C)C)cc5)c(Oc5ccc(C(C)(C)C)cc5)c5c6c(cc(Oc7ccc(C(C)(C)C)cc7)c(c7c(Oc8ccc(C(C)(C)C)cc8)c(Oc8ccc(C(C)(C)C)cc8)c(c2c37)C1=O)c64)C(=O)N(CCCC)C5=O label_class=Fulfilled
molecule=C#CCOc1ccc(C2=[N+]3C(=Nc4c(-c5ccccc5)cc(-c5ccc(O)cc5)n4[B-]3(F)F)C(c3ccccc3)=C2)cc1 label_class=Fulfilled
molecule=CC(C)(C)n1c(=O)c2cc3ccc4cccc5ccc(c2c1=O)c3c45 label_class=Fulfilled
molecule=CCCCCCCCCCCCCCOc1ccc(C#Cc2cc3nc4c(OCCCCCCCCCCCC)cc5c6cc(OCCCCCCCCCCCC)c(OCCCCCCCCCCCC)cc6c6cc(OCCCCCCCCCCCC)c(OCCCCCCCCCCCC)cc6c5c4nc3cc2C#Cc2ccc(OCCCCCCCCCCCCCC)cc2)cc1 label_class=Fulfilled
molecule=CN1C(=CC2=C([O-])C(=CC3=[N+](C)c4ccccc4C3(C)C)C2=C(C#N)C#N)C(C)(C)c2ccccc21 label_class=Fulfilled
molecule=CC(C)(C)c1ccc2oc3nc4oc5ccc(N(c6ccccc6)c6ccccc6)cc5c4cc3c2c1 label_class="Not fulfilled"
molecule=COC(=O)c1c2ccccc2nc2ccccc12 label_class="Not fulfilled"
molecule=O=C1/C(=C\c2ccc3oc4ccccc4c3c2)S(=O)(=O)c2ccccc21 label_class="Not fulfilled"
molecule=CCCCCCc1sc(CCCCCC)c2c3ccsc3c3sccc3c12 label_class="Not fulfilled"
molecule=CCCCCCCCCCOc1cc(OCCCCCCCCCC)cc(C2=C3C(/C=C/c4ccc(OC)cc4)=C(C#Cc4ccc(C(C)(C)C)cc4)C(/C=C/c4ccc(OC)cc4)=[N+]3[B-](F)(F)n3c(/C=C/c4ccc(OC)cc4)c(C#Cc4ccc(C(C)(C)C)cc4)c(/C=C/c4ccc(OC)cc4)c32)c1 label_class=Fulfilled
molecule=CCC1(CC)c2cc(B(c3c(C)cc(C)cc3C)c3c(C)cc(C)cc3C)ccc2-c2c1c1c(c3c2C(CC)(CC)c2cc(N(c4ccccc4)c4ccccc4)ccc2-3)C(CC)(CC)c2cc(B(c3c(C)cc(C)cc3C)c3c(C)cc(C)cc3C)ccc2-1 label_class="Not fulfilled"
molecule=c1ccc2c(c1)Oc1ccccc1C21c2cc(-c3ccc4ccc5cccc6ccc3c4c56)ccc2-c2ccc(-c3ccc4ccc5cccc6ccc3c4c56)cc21 label_class="Not fulfilled"
molecule=CCCCN1C(=O)C(=C/C=C/C=C2N(CCCC)c3ccccc3N2CCCC)C(=O)N(CCCC)C1=S label_class=Fulfilled
molecule=Cc1ccc(C2=CC(c3ccc(C)cc3)=[N+]3C2=Nc2c(-c4ccc(C)cc4)cc(-c4ccc(C)cc4)n2[B-]3(F)F)cc1 label_class=Fulfilled
molecule=CCCCCCCCCCOc1cc(OCCCCCCCCCC)cc(C2=C3C(C)=CC(/C=C/c4ccc(OC)cc4)=[N+]3[B-](F)(F)n3c(/C=C/c4ccc(OC)cc4)cc(C=Cc4ccc(OC)cc4)c32)c1 label_class=Fulfilled
